Cited source: paper PMC10397247

# TARGET DESC: T1, 4H971-AA
# T1 chain: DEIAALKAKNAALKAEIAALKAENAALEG
# TEST PROTOCOL: two-hybrid library CCmax;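 also: natural log of median RNA to DNA barcode read ratio; higher means stronger binding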
# CONDITION PARAMETERS: mean of both orientations
REPORTED ENDPOINT: interaction score

Please review the following examples before continuing.
[[record]]
binder = "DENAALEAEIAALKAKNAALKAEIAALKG [4H1146-AA]"
readout_value = -0.562

[[record]]
binder = "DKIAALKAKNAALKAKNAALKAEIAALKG [4H3066-AA]"
readout_value = -1.81

[[record]]
binder = "DEIAALKAENAALEAKIAALEAENAALEG [4H675-AA]"
readout_value = 0.0439

[[record]]
binder = "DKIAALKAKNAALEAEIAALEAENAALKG [4H2948-AA]"
readout_value = -0.608


Incoming: I have this binder here, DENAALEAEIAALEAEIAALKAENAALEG [4H1035-AA] , and I need its recorded interaction score.
Outgoing: -0.881

Incoming: I have this binder here, DEIAALKAENAALEAEIAALKAKNAALKG [4H656-AA] , and I need its recorded interaction score.
Outgoing: 1.93

Incoming: I have this binder here, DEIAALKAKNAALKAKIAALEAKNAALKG [4H1000-AA] , and I need its recorded interaction score.
Outgoing: -0.95

Incoming: I have this binder here, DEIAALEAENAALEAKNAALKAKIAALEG [4H189-AA] , and I need its recorded interaction score.
Outgoing: -1.52

Incoming: I have this binder here, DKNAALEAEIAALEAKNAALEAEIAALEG [4H3121-AA] , and I need its recorded interaction score.
Outgoing: -1.39
